Numbers sourced from paper PMC9160031.

Molecular target: 3-hydroxy-methylglutaryl CoA reductase (HMGCR) (Homo sapiens, UniProt P04035)
Sequence (P04035 1-888): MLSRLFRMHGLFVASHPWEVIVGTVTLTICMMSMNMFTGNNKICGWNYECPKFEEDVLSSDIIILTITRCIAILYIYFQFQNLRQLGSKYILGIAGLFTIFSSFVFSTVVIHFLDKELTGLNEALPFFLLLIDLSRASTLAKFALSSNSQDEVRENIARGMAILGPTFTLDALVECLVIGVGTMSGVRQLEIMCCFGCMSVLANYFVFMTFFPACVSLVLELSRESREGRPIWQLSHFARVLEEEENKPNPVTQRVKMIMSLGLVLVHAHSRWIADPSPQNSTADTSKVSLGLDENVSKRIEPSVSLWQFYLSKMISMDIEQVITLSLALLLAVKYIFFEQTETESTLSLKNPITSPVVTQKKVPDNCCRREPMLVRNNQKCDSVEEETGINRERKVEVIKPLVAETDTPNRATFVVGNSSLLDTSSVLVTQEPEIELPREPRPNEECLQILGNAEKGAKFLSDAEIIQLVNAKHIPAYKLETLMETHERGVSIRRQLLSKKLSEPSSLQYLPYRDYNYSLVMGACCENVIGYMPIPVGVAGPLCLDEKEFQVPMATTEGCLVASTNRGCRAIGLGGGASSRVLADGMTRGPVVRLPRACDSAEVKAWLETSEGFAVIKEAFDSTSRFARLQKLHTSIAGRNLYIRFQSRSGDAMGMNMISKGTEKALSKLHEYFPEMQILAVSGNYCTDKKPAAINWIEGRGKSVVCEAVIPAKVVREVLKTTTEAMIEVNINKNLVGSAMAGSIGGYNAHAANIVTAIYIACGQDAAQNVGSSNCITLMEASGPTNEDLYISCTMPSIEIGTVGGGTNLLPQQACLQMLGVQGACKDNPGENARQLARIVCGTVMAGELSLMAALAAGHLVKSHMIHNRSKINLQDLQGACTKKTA
readoutLabel: pKd
Please report pKd as the negative decimal logarithm of the molar concentration, giving only the number.

Challenge: # input molecule: CC(=O)O[C@H]1CC([C@H](C)C2CC(C)=C(C)C(=O)O2)[C@@]2(C)CCC3C(C[C@H]4O[C@]45[C@@H](O)C=CC(=O)[C@]35C)[C@]12O (stereo partly shown) [PB, Physapubenolide] ; wanted: its pKd
Response given: 5.84
